Experiment: Ocular tissue concentrations (aqueous humor, vitreous humor, iris, retina, choroid, cornea) after topical ocular, subcutaneous and intravitreal administration
Assay type: in vivo, New Zealand White rabbits
Conditions: New Zealand White, rabbit, retina, other: intravitreal, 2.5 mg/eye, Retina, 6.0 hr; sodium salt, intravitreal 2.5 mg/eye, Group 4; read-out: Retina Avg.
Parameter measured: concentration at 6 h (ng/g)
Note: unit ng/g is implicit; provide only the numeric part.

Query COC(=O)N[C@@H](Cc1ccccc1)C(=O)N[C@@H](Cc1ccc(NS(=O)(=O)O)cc1)c1csc(-c2cccs2)n1 [Compound 1] yields concentration at 6 h of 774000

---

Experiment: Ocular tissue concentrations (aqueous humor, vitreous humor, iris, retina, choroid, cornea) after topical ocular, subcutaneous and intravitreal administration
Type: in vivo, New Zealand White rabbits
Conditions: New Zealand White, rabbit, aqueous humor, other: intravitreal, 2.5 mg per eye, Group 4 intravitreal 2.5 mg per eye; 48 hr; read-out: aqueous humor Average Conc.
Where a name gives a salt, the structure may show the parent alone.
Parameter measured: concentration at 48 hr

Query COC(=O)N[C@@H](Cc1ccccc1)C(=O)N[C@@H](Cc1ccc(NS(=O)(=O)O)cc1)c1csc(-c2cccs2)n1 [Compound 1 sodium salt] yields concentration at 48 hr of 1960 ng/g

---

Test: Ocular tissue concentrations (aqueous humor, vitreous humor, iris, retina, choroid, cornea) after topical ocular, subcutaneous and intravitreal administration
Assay type: in vivo, New Zealand White rabbits
Conditions: New Zealand White, rabbit, cornea homogenate, other: intravitreal, 2.5 mg/eye, Cornea homogenate, 48 hr, OS; sodium salt, intravitreal 2.5 mg/eye, Group 4; read-out: Cornea Conc. (ng/mL) OS
Parameter measured: concentration at 48 hr

Query "COC(=O)N[C@@H](Cc1ccccc1)C(=O)N[C@@H](Cc1ccc(NS(=O)(=O)O)cc1)c1csc(-c2cccs2)n1" yields concentration at 48 hr of 662 ng/mL

---

Test: Ocular tissue concentrations (aqueous humor, vitreous humor, iris, retina, choroid, cornea) after topical ocular, subcutaneous and intravitreal administration
Type: in vivo, New Zealand White rabbits
Settings: New Zealand White, rabbit, aqueous humor, subcutaneous, 5 mg/kg, Group 3 subcutaneous 5 mg/kg; 4.0 hr; read-out: aqueous humor Average Conc.
Parameter measured: concentration at 4 hr

Query COC(=O)N[C@@H](Cc1ccccc1)C(=O)N[C@@H](Cc1ccc(NS(=O)(=O)O)cc1)c1csc(-c2cccs2)n1 [Compound 1 free acid] yields concentration at 4 hr of 0.51 ng/g

---

Assay: Plasma concentrations and pharmacokinetic parameters after topical ocular, subcutaneous and intravitreal administration
Assay type: in vivo, New Zealand White rabbits
Conditions: New Zealand White, rabbit, plasma, other: intravitreal, 2.5 mg, plasma; intravitreal 2.5 mg/eye (~1.55 mg/kg), solution
Where a name gives a salt, the structure may show the parent alone.
Parameter measured: Cmax

Query COC(=O)N[C@@H](Cc1ccccc1)C(=O)N[C@@H](Cc1ccc(NS(=O)(=O)O)cc1)c1csc(-c2cccs2)n1 [Compound 1 sodium salt] yields Cmax of 39.8 ng/mL

---

Assay: Ocular tissue concentrations (aqueous humor, vitreous humor, iris, retina, choroid, cornea) after topical ocular, subcutaneous and intravitreal administration
Type: in vivo, New Zealand White rabbits
Conditions: New Zealand White, rabbit, iris homogenate, other: intravitreal, 2.5 mg/eye, Iris homogenate, 48 hr, OS; sodium salt, intravitreal 2.5 mg/eye, Group 4; read-out: Iris Conc. (ng/mL) OS
Parameter measured: concentration at 48 h (ng/mL)
Note: unit ng/mL is implicit; provide only the numeric part.

Query "COC(=O)N[C@@H](Cc1ccccc1)C(=O)N[C@@H](Cc1ccc(NS(=O)(=O)O)cc1)c1csc(-c2cccs2)n1" yields concentration at 48 h of 1960
